Biological target: T1, human IL-23 (human, UniProt Q9NPF7 20-189; P29460 23-328)
T1 construct: Bought recombinant heterodimeric cytokine (eBioscience 34-8239-85 for panning; R&D Systems for the splenocyte assay); also called hIL-23; hIL23
T1 sequence (looked up) 1: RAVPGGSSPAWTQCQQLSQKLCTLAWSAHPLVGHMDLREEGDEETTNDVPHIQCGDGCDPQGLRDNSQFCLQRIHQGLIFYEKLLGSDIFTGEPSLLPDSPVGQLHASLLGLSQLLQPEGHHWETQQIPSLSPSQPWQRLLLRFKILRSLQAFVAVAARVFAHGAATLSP
T1 sequence (looked up) 2: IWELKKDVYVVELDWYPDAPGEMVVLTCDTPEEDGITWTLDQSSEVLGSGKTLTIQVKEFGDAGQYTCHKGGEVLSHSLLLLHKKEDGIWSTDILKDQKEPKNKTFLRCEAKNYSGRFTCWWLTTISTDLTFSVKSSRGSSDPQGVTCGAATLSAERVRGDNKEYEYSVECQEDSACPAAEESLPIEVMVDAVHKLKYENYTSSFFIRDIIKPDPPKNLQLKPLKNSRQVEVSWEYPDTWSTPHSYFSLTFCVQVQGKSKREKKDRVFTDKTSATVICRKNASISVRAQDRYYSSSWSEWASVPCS
Assay: equilibrium ELISA, soluble polypeptide
parameter.measured: Kd (nM)
Write the number in nM without appending the unit.

Look up Kd: MB67 (designed binder) MSIQKIQKEITNIQEVIAAIQKYIYTMTGGSGGSGGMSIEEIQKQIAAIQCQIAAIQKQIYAMTGSGGGGSGGSGGGGSGMSIEEIQKQIAAIQRQILAIYKQIMAMST
0.25

Quick one: Kd for 59m_C2eQ (designed binder, also called design variant; polypeptide 19) single chain Alphabody: MSIQQIQKEIAQIQEVIAGIQKWIYMMTGGSGGSGGGGSGGSGGMSIEEIQKQIAAIQCQIAAIQKQIYAMTGSGGGGSGGSGGGGSGMSIEEIQKQITAIQEQIIAIYKQIMAMTP ?
0.93

Param item = MB38 (designed binder) MSIQEIQKEIKQIQEVIAGIQKYIYGMTGGSGGSGGMSIEEIQKQIAAIQCQIAAIQKQIYAMTGSGGGGSGMSIEEIQKQIAAIQNQILAIYKQIMAMPQ ; retrieve measured Kd.
0.2

Field request: Kd | item: 59m_A3cA_A4cS_C2eQ (designed binder, also called design variant; polypeptide 20) single chain Alphabody: MSIQQIQKEIAQIQEVIAAIQKWIYSMTGGSGGSGGGGSGGSGGMSIEEIQKQIAAIQCQIAAIQKQIYAMTGSGGGGSGGSGGGGSGMSIEEIQKQITAIQEQIIAIYKQIMAMTP
0.39
